Reported pIC50 on UniProt Q92918 for assorted compounds, compiled from publications.
pIC50: −log10 of the molar value.

{"compound": "CN(C)Cc1cccc(Nc2ccc(-c3cnc4cc(F)ccn34)c3c2C(=O)NC3)n1", "result": "> 7.00"}
{"compound": "CN(C)Cc1nc(Nc2ccc(-c3cnc4cc(C(F)F)ccn34)c3c2C(=O)NC3)ccc1C1CCOC1 (stereo in doubt)", "result": "> 7.00"}
{"compound": "Cc1cc(-c2cnc(N)c(Oc3cnn(CC(C)(C)C#N)c3)n2)cc2c1CN(C)CC2", "result": 7.22}
{"compound": "C/C(Nc1cnn(CC(C)(C)O)c1)=C1/C(=O)Nc2cnc(-c3cnccc3C)cc21", "result": "> 7.30"}
{"compound": "COc1cc2c(cc1Nc1ncc(C(N)=O)c(NCc3cnc4ccccn34)n1)CN(C)CC2", "result": 6.11}

So, `COc1cc(-c2cc(Nc3ccc(C#N)cn3)c3c(=O)[nH]ccc3n2)c(F)cc1C(=O)N1CCCCC1` ? Its pIC50 was 6.00 to 7.00

So, `CC(C)c1nc2c(N3CCC(N)CC3)c(NC(=O)c3ccc(=O)n(-c4c(F)cccc4F)n3)ccc2n1C` ? Its pIC50 was > 7.00

So, `CCOc1nc2c(cc1Nc1ncc3cccc(-c4cnn(C)c4C)c3n1)CN(C)CC2` ? Its pIC50 was 9.18

###

Reported IC50 on HPK1 (Homo sapiens (Human), UniProt Q92918) for assorted compounds, compiled from publications.
Give just the number in nM; leave the unit off.

Here is how some compounds turned out for IC50.
{"smiles input": "COc1nc2c(cc1Nc1ncc3cccc(NCC4CCOCC4)c3n1)CN(C)CC2", "result unit": "nM", "IC50": 1.66}
{"smiles input": "COc1cc2c(cc1Nc1ncc3ccc(-c4cncc(N5CCN(C)CC5)c4)cc3n1)CNCC2", "result unit": "nM", "IC50": 18.9}
{"smiles input": "CC(C)(C)c1cccc(Nc2ncc(C(N)=O)c(Nc3cccc4c3CCNC4=O)n2)c1", "result unit": "nM", "IC50": 3.31}

Now examine the next entry.
So, `COc1cc2c(cc1Nc1ncc(C(N)=O)c(Nc3cccc4nnc(C)cc34)n1)CN(C)CC2` ? Its IC50 was 70.5

###

Reported IC50 on HPK1 (Homo sapiens (Human)) for assorted compounds, compiled from publications.

{"smiles input": "COc1cc2c(cc1Nc1ncc(C(N)=O)c(Nc3c(F)ccc(C)c3Cl)n1)CN(C)CC2", "IC50": "0.1 nM"}
{"smiles input": "O=C1NCc2c(-c3cnc4cnccn34)ccc(Nc3ccc(N4CC(O)C4)cn3)c21", "IC50": "< 100 nM"}
{"smiles input": "Cn1cc(-c2ccc(Nc3ccc(N4CCC(O)CC4)cn3)c3c2CNC3=O)c2ccnnc21", "IC50": "< 100 nM"}
{"smiles input": "O=C1NCc2c(-c3cnc4cc(F)ccn34)ccc(Nc3ccc(N4CC[C@H](O)[C@@H](F)C4)cn3)c21", "IC50": "< 100 nM"}
{"smiles input": "CC(C)n1cc(Nc2ncc(C(N)=O)c(Nc3cccc4c3CCNC4=O)n2)cn1", "IC50": "6.24 nM"}

So, `Cc1cccc2c(-c3ccc(Nc4ccc(N5CCNCC5)cn4)c4c3CNC4=O)cnn12` ? Its IC50 was < 100 nM

So, `CNS(=O)(=O)c1cccc(Nc2ncc3c(N)c(F)c(-c4cnc5c(c4C)NCCO5)cc3n2)c1` ? Its IC50 was 0.118 nM

So, `COc1cc2c(cc1Nc1ncc(C(N)=O)c(Nc3ccc(F)cc3F)n1)CN(C)CC2` ? Its IC50 was 1.34 nM

###

pIC50: −log10 of the molar value.
Reported pIC50 on HPK1 (Homo sapiens (Human), UniProt Q92918) for assorted compounds, compiled from publications.

{"compound": "CNCc1cc(C)c(-c2ccc3[nH]cc(-c4ccc5c(c4)OCC4CN(C)CCN54)c3n2)c(F)c1 (centres unmarked)", "property label": "pIC50", "result": "≥ 8.00"}
{"compound": "Cc1c(-c2cc3nc(Nc4ccc(C5CCN(C)C5=O)cc4)ncc3cc2F)cnc2c1NCCO2 (single isomer, unassigned)", "property label": "pIC50", "result": 9.02}

So, `O=C1NCc2c(-c3cnc4cc(F)ccn34)ccc(Nc3ccc(N4CCO[C@H](Cn5ccnc5)C4)cn3)c21` ? Its pIC50 was > 7.00

So, `COc1ccc(F)c(F)c1-c1nccc(C(=O)Nc2cc(F)ccc2N2C[C@H]3C[C@@H]2CN3)c1F` ? Its pIC50 was > 7.00

So, `[2H]C([2H])([2H])C(n1ncc2c(N3C[C@H](N)C(C)(C)C3)c(NC(=O)c3ccc(=O)n(-c4c(F)cccc4F)n3)ccc21)C([2H])([2H])[2H]` ? Its pIC50 was > 7.00

So, `C[C@@H]1CN(c2c(NC(=O)c3ccc(=O)n(-c4c(F)cccc4F)n3)ccc3c2cnn3C2CCC2)C[C@@H]1N` ? Its pIC50 was > 7.00

###

Reported IC50 on HPK1 (Homo sapiens (Human), UniProt Q92918) for assorted compounds, compiled from publications.

So, `NC(=O)c1cnc(NC2(c3ccccc3F)CC2)nc1Nc1cccc2c1CCNC2=O` ? Its IC50 was 346 nM

So, `Cc1ccc(NC(=O)c2cc(C(F)(F)F)ccn2)cc1C1=Cc2cnc(Nc3cn(C)nn3)nc2N2CCN=C12` ? Its IC50 was < 100 nM

So, CN1CCN(CC2(O)CCCN(c3ccc(Nc4ccc(-c5cnc6cc(F)ccn56)c5c4C(=O)NC5)nc3)C2)CC1 (stereo not shown) ? Its IC50 was < 100 nM

So, `COc1cc2c(cc1Nc1ncc3ccc(Nc4nccc(CO)n4)cc3n1)CN(C)CC2` ? Its IC50 was 1.67 nM

###

Reported pIC50 on HPK1 (Homo sapiens (Human), UniProt Q92918) for assorted compounds, compiled from publications.
pIC50: −log10 of the molar value.

Here is how some compounds turned out for pIC50.
{"compound": "C[C@@H](OC1CCOCC1)c1ccc(Nc2ccc(-c3cnc4cc(F)ccn34)c3c2C(=O)NC3)nc1CN(C)C (single isomer, unassigned)", "property label": "pIC50", "result": "≥ 7.00"}
{"compound": "Cc1cc(-c2c[nH]c3ncc(-c4cc(C)c5c(c4)CC[C@H]4CN(C)CCN54)nc23)ccc1C(=O)N1CC2(COC2)C1", "property label": "pIC50", "result": 7.21}
{"compound": "C[C@@H]1CN(c2c(NC(=O)c3ccc(=O)n(-c4c(F)cccc4F)n3)ccc3nn(C4(C)CCC4)cc23)C[C@@H]1N", "property label": "pIC50", "result": "> 7.00"}
{"compound": "Cc1ccc2c(-c3ccc(Nc4ccc(N5CCO[C@H](C(C)(C)O)C5)cn4)c4c3CNC4=O)cnn2c1", "property label": "pIC50", "result": "> 7.00"}
{"compound": "Cc1ccc(Nc2ncc3c(n2)N2CCN=C2C(c2cc(NC(=O)c4cccc(C(F)(F)F)c4)ccc2C)=C3)cn1", "property label": "pIC50", "result": "> 7.00"}

Let me check: CCN(CC)Cc1nc(Nc2ccc(-c3cnc4cc(F)ccn34)c3c2C(=O)NC3)ccc1C1CCOC1 (stereo not shown) , system HPK1 (Homo sapiens (Human), UniProt Q92918), measured pIC50 is > 7.00

Let me check: `CN1CCN(c2ccc3nc(-c4c(N[C@H]5CCC[C@@H]5O)c5ccsc5[nH]c4=O)[nH]c3c2)CC1` , system HPK1 (Homo sapiens (Human), UniProt Q92918), measured pIC50 is ≥ 7.30

###

Reported IC50 on HPK1 (Homo sapiens (Human), UniProt Q92918) for assorted compounds, compiled from publications.

{"smiles input": "COc1cc2c(cc1Nc1ncc3ccc(-c4ccc(CN(C)C)cc4)cc3n1)CNCC2", "system": "HPK1 (Homo sapiens (Human), UniProt Q92918)", "IC50": "79.2 nM"}
{"smiles input": "COc1cc2c(cc1Nc1ncc(C(N)=O)c(Nc3ccccc3C3CC3)n1)CN(C)CC2", "system": "HPK1 (Homo sapiens (Human), UniProt Q92918)", "IC50": "0.17 nM"}
{"smiles input": "Cn1ccc2c(-c3ncc(Nc4ccc([C@@H]5CCOC5)cn4)c4c3CNC4=O)ccnc21", "system": "HPK1 (Homo sapiens (Human), UniProt Q92918)", "IC50": "< 100 nM"}
{"smiles input": "Cc1cc(-c2cnc(N)c(OCc3ccncc3F)n2)cc2c1CCN(C)C2", "system": "HPK1 (Homo sapiens (Human), UniProt Q92918)", "IC50": "46 nM"}
{"smiles input": "CNc1ncc2c(n1)N1CCN=C1C(c1cc(NC(=O)c3cc(C(F)(F)F)ccn3)ccc1Cl)=C2", "system": "HPK1 (Homo sapiens (Human), UniProt Q92918)", "IC50": "100 to 10000 nM"}

Let me check: `CN1CCN(c2ccc(Nc3ccc(-c4cnc5c(ccn5C)c4)c4c3C(=O)NC4)nc2)CC1` , system HPK1 (Homo sapiens (Human), UniProt Q92918), measured IC50 is 100 to 1000 nM

Let me check: `CN1CC[C@]12CCN(c1cccc(Nc3cnc(-c4ccnc5c4ccn5C)c4c3C(=O)NC4)n1)C2` , system HPK1 (Homo sapiens (Human), UniProt Q92918), measured IC50 is 100 to 1000 nM

Let me check: `Cc1ccn2c(-c3ncc(Nc4ccc(N5CCC(O)CC5)cn4)c4c3CNC4=O)cnc2c1` , system HPK1 (Homo sapiens (Human), UniProt Q92918), measured IC50 is < 100 nM
